The origin of these recorded values is patent US10100129B2.

target: T1, CD32a-H131 (FcgRIIa-H131) (Homo sapiens, UniProt P12318)
T1 sequence (P12318 34-217 limits assumed): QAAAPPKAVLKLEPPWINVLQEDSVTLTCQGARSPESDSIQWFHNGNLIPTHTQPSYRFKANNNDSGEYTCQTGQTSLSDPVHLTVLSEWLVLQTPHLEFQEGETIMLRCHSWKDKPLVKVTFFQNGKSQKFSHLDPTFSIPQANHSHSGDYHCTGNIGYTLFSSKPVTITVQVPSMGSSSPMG
procedure_text: SPR binding to FcgR-his: CD32a-H131
condition_context: 1 μM antibody, anti-his Fab captured FcgR-his
assay_readout: % Rmax, binding to hCD32a-H131 (%)
// note: answer is a bare numeric in %

(Q) Which % Rmax, binding to hCD32a-H131 value is on record for mAb6-IgG2.5 (protein, left off: another chain or arm of the molecule) constant: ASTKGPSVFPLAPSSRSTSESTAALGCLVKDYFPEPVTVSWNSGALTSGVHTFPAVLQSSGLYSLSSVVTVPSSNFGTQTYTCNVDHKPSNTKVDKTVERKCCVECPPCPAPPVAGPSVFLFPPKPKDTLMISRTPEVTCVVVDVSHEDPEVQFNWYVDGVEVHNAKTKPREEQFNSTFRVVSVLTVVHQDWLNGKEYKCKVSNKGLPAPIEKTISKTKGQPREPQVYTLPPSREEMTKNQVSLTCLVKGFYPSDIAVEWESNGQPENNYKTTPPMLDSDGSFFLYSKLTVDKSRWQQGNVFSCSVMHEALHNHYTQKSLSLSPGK ?
(A) 75

(Q) Again, but for mAb8-IgG2.3G1-AY-V27 (protein, left off: another chain or arm of the molecule) constant: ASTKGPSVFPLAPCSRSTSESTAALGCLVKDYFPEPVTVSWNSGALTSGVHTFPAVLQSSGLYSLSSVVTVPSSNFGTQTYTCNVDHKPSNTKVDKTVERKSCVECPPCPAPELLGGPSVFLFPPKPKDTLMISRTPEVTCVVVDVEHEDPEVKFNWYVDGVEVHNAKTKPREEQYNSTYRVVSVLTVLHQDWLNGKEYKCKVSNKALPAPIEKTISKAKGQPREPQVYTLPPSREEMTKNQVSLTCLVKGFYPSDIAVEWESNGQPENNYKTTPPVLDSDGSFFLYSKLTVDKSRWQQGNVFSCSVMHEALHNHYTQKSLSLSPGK
(A) 67

(Q) Again, but for mAb6-IgG2.3 (protein, left off: another chain or arm of the molecule) constant: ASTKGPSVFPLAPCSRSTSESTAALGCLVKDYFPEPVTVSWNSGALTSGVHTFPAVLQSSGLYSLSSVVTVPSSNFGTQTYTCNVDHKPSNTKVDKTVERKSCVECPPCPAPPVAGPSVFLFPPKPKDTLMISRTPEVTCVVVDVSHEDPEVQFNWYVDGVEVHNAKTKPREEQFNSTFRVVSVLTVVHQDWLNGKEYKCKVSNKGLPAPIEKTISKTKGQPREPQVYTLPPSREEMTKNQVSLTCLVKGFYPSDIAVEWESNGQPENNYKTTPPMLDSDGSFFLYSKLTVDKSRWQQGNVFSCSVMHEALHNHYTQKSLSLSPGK
(A) 66

(Q) Again, but for mAb5-IgG2.5 (protein, left off: another chain or arm of the molecule) constant: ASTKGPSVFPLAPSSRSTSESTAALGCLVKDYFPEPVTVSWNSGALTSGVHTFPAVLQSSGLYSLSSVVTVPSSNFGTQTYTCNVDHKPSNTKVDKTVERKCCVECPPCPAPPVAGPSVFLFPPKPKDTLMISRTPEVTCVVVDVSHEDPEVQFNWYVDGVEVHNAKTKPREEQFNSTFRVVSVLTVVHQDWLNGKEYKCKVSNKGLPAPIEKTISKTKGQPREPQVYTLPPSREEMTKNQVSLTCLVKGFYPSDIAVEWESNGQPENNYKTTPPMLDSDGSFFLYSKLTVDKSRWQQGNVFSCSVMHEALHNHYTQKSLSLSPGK
(A) 89
